target: Ec Hfq R17W (Escherichia coli, UniProt P0A6X3 1-102, R17W); assay: fluorescence polarization
Each entry below lists one item and its recorded pKd value.
Hey, just a heads up that pKd is the negative log base 10 of the concentration in molar.

- binder: "UUUUUU (ssRNA) [U6 (fluorescein)]"
  pKd: 5.80

Now for another entry.
Using the record for AAAAAAAAAAAAAAA (ssRNA) [A15 (fluorescein)] , state its measured pKd.
8.43
